The origin of these recorded values is patent US20240384268A1.

Entries and their TLR9 500 nM (averaged NF-κB-Luciferase level relative to ODN2006 condition) values follow.
Assayed Target: human TLR9 (Homo sapiens)
Construct: HA; host or cells: 293XL-hTLR9-HA (HEK293)
Sequence (Q9NR96 26-1032): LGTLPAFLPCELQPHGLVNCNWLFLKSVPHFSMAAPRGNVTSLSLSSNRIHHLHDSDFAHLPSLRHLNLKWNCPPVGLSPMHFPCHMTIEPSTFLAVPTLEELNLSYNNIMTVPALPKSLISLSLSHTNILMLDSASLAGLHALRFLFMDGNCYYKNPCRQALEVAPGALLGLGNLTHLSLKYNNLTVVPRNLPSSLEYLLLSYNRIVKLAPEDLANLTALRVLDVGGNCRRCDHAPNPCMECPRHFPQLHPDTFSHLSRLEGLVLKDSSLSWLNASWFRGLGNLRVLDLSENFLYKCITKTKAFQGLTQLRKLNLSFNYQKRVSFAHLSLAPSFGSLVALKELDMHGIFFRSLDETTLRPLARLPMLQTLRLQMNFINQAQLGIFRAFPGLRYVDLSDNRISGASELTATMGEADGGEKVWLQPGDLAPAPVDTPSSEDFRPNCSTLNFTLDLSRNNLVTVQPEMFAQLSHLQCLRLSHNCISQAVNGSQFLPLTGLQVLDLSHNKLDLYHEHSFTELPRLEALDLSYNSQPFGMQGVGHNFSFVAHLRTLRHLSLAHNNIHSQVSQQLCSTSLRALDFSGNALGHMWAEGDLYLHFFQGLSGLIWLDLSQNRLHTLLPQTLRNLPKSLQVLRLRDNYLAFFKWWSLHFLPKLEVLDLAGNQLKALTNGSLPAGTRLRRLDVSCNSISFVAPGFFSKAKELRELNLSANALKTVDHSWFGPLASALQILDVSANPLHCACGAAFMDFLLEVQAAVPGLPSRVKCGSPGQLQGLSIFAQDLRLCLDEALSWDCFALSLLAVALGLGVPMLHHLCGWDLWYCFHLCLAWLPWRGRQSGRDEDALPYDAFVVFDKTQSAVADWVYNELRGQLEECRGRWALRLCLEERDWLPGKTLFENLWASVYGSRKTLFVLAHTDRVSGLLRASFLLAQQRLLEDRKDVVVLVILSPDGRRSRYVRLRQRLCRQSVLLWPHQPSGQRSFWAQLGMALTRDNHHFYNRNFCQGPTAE
Experiment Summary: HEK-TLR9 NF-κB-luciferase reporter, ODN2006 stimulation
Type: cell-based
Assay Setup: ASO 500 nM; relative to ODN2006 only, given as fraction
# print the numeric value only

Some solved cases for reference:
CCTTGCACGTGGCTTC (antisense; LNA-modified, pattern not given here) [EGFR-1013 LNA V1] : 0.519
GTCCCCTGTTGACTGG (antisense; LNA-modified, pattern not given here) [HPRT LNA-489 KL] : 0.326
TCTTGGCTTCGTGGAG (antisense; LNA-modified, pattern not given here) [MB21D1-521 LNA V1] : 0.595
CTGCAGCTTCCTTGTC (antisense; LNA-modified, pattern not given here) [CTNN2B-2136 LNA V1] : 0.263

Form: sequence = ATGTGATGGCCTCCCA (antisense; LNA-modified, pattern not given here) [HPRT LNA-335 V1] ; TLR9 500 nM (averaged NF-κB-Luciferase level relative to ODN2006 condition) = 0.451

So, CCTCCCATCTCCTTCA (antisense; LNA-modified, pattern not given here) [HPRT LNA-326 V1] ? Its TLR9 500 nM (averaged NF-κB-Luciferase level relative to ODN2006 condition) was 0.727

So for GCATCCACCACGTCGT (antisense; LNA-modified, pattern not given here) [EGFR-3267 LNA V1] , the logged TLR9 500 nM (averaged NF-κB-Luciferase level relative to ODN2006 condition) turned out to be 0.375

---

Attribute: TLR8 500 nM (averaged NF-κB-Luciferase level relative to R848 condition, fold increase)
Assayed Target: TLR8 (Homo sapiens, UniProt Q9NR97)
Sequence (Q9NR97 27-1041): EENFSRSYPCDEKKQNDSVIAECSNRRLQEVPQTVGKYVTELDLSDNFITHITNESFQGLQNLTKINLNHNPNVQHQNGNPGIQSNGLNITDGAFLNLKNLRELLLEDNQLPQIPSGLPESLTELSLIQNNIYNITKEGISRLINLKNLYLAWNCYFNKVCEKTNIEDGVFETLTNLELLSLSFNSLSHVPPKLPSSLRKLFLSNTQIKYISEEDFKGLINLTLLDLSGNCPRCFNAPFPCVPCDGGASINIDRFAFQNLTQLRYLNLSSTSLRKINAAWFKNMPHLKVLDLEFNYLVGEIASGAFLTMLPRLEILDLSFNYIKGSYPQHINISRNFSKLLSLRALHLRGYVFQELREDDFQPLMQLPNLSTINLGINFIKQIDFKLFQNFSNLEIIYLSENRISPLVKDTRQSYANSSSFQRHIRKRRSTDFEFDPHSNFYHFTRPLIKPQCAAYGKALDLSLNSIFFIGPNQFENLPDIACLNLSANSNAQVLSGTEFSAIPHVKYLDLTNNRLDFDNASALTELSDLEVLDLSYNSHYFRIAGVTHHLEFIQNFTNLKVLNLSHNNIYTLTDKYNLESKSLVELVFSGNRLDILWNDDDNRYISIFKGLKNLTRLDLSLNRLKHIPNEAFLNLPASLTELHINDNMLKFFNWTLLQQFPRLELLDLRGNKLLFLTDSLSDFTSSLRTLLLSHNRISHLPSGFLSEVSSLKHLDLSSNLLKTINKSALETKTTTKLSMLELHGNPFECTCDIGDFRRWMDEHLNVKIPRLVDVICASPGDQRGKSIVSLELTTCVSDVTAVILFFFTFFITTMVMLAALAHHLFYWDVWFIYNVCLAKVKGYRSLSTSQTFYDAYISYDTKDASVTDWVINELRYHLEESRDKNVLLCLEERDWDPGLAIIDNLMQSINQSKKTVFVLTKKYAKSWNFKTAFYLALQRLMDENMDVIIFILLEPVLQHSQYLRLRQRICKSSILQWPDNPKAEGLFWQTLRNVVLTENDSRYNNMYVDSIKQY
Experiment Summary: HEK-TLR8 NF-κB-luciferase reporter, R848 or Motolimod stimulation (potentiation or inhibition)
Type: cell-based
Parameters: expressed in transfected cells; host or cells: 293XLhTLR8 (HEK293)
Assay Setup: ASO 500 nM; relative to R848 only
The response must contain the number and no unit.

GAAAGGTTATGCAAGG (antisense; LNA-modified, pattern not given here) [CTNN2B-916 LNA KL] : 4.110
GTCTCTGGAGCTTCCT (antisense; LNA-modified, pattern not given here) [CAMSAP1-2456 LNA V1] : 2.402
AGTGTTGAGATACTCG (antisense; LNA-modified, pattern not given here) [EGFR-3652 LNA KL] : 0.599
TACTTTCCGAGGTGTC (antisense; LNA-modified, pattern not given here) [CAMSAP1-1739 LNA KL] : 1.585
GCATCCACCACGTCGT (antisense; LNA-modified, pattern not given here) [EGFR-3267 LNA V1] : 0.738

Reported TLR8 500 nM (averaged NF-κB-Luciferase level relative to R848 condition, fold increase) for GGCTCGGCTTGCCTAC (antisense; LNA-modified, pattern not given here) [CAMSAP1-5594 LNA V1] was 0.706

Short answer for ATGGCCTCCCATCTCC (antisense; LNA-modified, pattern not given here) [HPRT LNA-330 V1] : TLR8 500 nM (averaged NF-κB-Luciferase level relative to R848 condition, fold increase) was 1.356

The recorded TLR8 500 nM (averaged NF-κB-Luciferase level relative to R848 condition, fold increase) for entry GTGTCTGGAAGCTTCC (antisense; LNA-modified, pattern not given here) [CTNN2B-809 LNA V1] equals 2.057

Sure, the documented TLR8 500 nM (averaged NF-κB-Luciferase level relative to R848 condition, fold increase) for AAAGGACTGAGGAAAG (antisense; LNA-modified, pattern not given here) [CAMSAP1-6273 LNA KL] is 2.663
